ASSAYED_SYSTEM: GST-ORA59 (Arabidopsis thaliana, UniProt Q9LND1 1-244)
Sequence (Q9LND1 whole entry): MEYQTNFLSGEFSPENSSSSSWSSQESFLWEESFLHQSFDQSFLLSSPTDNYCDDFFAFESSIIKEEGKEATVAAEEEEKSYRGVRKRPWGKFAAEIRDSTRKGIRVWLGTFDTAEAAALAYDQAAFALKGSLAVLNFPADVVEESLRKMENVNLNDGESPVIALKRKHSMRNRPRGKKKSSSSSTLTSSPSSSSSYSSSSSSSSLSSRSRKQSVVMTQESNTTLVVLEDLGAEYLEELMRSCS
ASSAY_EXPLANATION: competition; 5-, 25-, 50-fold excess vs biotin-OBS2; Chemiluminescent EMSA kit (Beyotime) EMSA/Gel-Shift binding buffer; salt, pH and temperature not stated
CONDITION_DESCRIPTION: protein: recombinant; tags: N-terminal GST (pGEX); blunt
MEASURED_ATTRIBUTE: binding result

| BINDER | ENDPOINT_VALUE |
| --- | --- |
| mutant competitor III (OBS2, BOX-W1 mutant) (dsDNA) DNA 1: TTGCATATAGATCCAACGATCTCCTCTTACCTAGAAAAAGAGAGAGTTGTACACCCGTA DNA 2: TACGGGTGTACAACTCTCTCTTTTTCTAGGTAAGAGGAGATCGTTGGATCTATATGCAA | binds |
| mutant competitor IV (OBS2, unnamed motif and TCT-motif mutant) (dsDNA) DNA 1: TTGCATATAGATCCAACGATCTCGACTTACCTAGAAAAAGAGAGAGTTGTTGACCCGTA DNA 2: TACGGGTCAACAACTCTCTCTTTTTCTAGGTAAGTCGAGATCGTTGGATCTATATGCAA | binds |
| mutant competitor II (OBS2, GAG-motif mutant) (dsDNA) DNA 1: TTGCATATAGATCCAACGATCTCCTCTTACCTAGAAAAAGACACAGTTGTTGACCCGTA DNA 2: TACGGGTCAACAACTGTGTCTTTTTCTAGGTAAGAGGAGATCGTTGGATCTATATGCAA | binds |
